condition set: in water, 327.15 K
value type: solubility (mole fraction)

A = O=C(O)c1ccccc1O
B = O=C(O)c1ccco1
C = O=C(O)c1ccccc1C(=O)O
# rank by solubility (mole fraction), ascending (min first) Returns: the labels listed in the requested order.
A, C, B
(A: 0.000934, C: 0.00248, B: 0.0722)

----------
condition set: in water, 320.15 K
value type: solubility (mole fraction)

A = O=C(O)c1ccccc1O
B = O=C(O)c1ccccc1C(=O)O
Could you point out whether the larger solubility (mole fraction) belongs to A or to B ? Let me know the label of the one you choose.
B

----------
condition set: in water, 330.65 K
value type: solubility (mole fraction)

P = O=C(O)c1ccco1
Q = O=C(O)c1ccccc1O
When their solubility (mole fraction) values are compared, which is larger, P or Q ? Answer by stating the label of the chosen item.
P
(P: 0.128, Q: 0.00111)

----------
condition set: in water, 334.55 K
value type: solubility (mole fraction)
Just the number.

Report solubility (mole fraction), nothing else, for this molecule: O=C(O)c1ccco1
0.144

----------
condition set: in water, 302.15 K
value type: solubility (mole fraction)

1. O=C(O)c1ccco1    0.0099

A = O=C(O)CCCC(=O)O
B = O=C(O)CCCCCC(=O)O
Between the entries labelled A and B , which has a larger solubility (mole fraction) value on record? Label of pick, please.
A

----------
condition set: in water, 283.65 K
value type: solubility (mole fraction)

P = O=C(O)c1ccccc1C(=O)O
Q = O=C(O)c1ccco1
Look at P and Q . Which one has the lower recorded solubility (mole fraction) number? Answer format: the label of the selected item.
P

----------
condition set: in water, 285.15 K
value type: solubility (mole fraction)
Response field accepts a number only; no unit should be typed.

Find the measured solubility (mole fraction) of O=C(O)c1ccco1 and report it.
0.00471

----------
condition set: in water, 338.15 K
value type: solubility (mole fraction)
// print number alone

Given O=C(O)c1ccccc1C(=O)O , respond with its solubility (mole fraction).
0.004

----------
condition set: in water, 316.15 K
value type: solubility (mole fraction)

1 = O=C(O)CCCC(=O)O
2 = O=C(O)CCCCCC(=O)O
Hey, which is lower on measured solubility (mole fraction), 1 or 2 ? Write down the label of the entry you select.
2
(2: 0.0364, 1: 0.281)

----------
condition set: in water, 297.15 K
value type: solubility (mole fraction)
Please reply with the value in numeric form only.

Hello, please tell me recorded solubility (mole fraction) for this one: O=C(O)CCCCCC(=O)O
0.00738

----------
condition set: in water, 336.15 K
value type: solubility (mole fraction)

P = O=C(O)CCCC(=O)O
Q = O=C(O)c1ccco1
Problem: Given the entries P and Q , determine which has the lower reported solubility (mole fraction). Indicate your choice by writing its label.
Q
(Q: 0.199, P: 0.478)

----------
condition set: in water, 286.15 K
value type: solubility (mole fraction)
I'd appreciate a reply containing only the number, no unit.

State its solubility (mole fraction): O=C(O)CCCC(=O)O
0.101

----------
condition set: in water, 332.15 K
value type: solubility (mole fraction)
Respond using a number only.

Identify the reported solubility (mole fraction) for the following entry. O=C(O)CCCC(=O)O
0.419

----------
condition set: in water, 320.55 K
value type: solubility (mole fraction)
When you answer, write just the number.

# return recorded solubility (mole fraction) for entry O=C(O)CCCC(=O)O
0.308

The measured values listed here are drawn from BigSolDB 2.1.
